Test: Clinical pharmacokinetics, 25 and 75 mg, compared to Adderall XR and Dexedrine Spansule
Details: human, in vivo, po, 25 mg, L-lysine-d-amphetamine intact conjugate concentration, oral 25 mg L-lysine-d-amphetamine, 0 h, mean
MEASURED QUANTITY: concentration at 0 h (µg/mL)
Write the value in µg/mL as a bare number.

The reported value for CC(Cc1ccccc1)NC(=O)C(N)CCCCN (stereo not shown) in terms of concentration at 0 h is 0

----------
Experiment: Clinical pharmacokinetics, 25 and 75 mg, compared to Adderall XR and Dexedrine Spansule
Conditions: human, in vivo, po, 75 mg, L-lysine-d-amphetamine intact conjugate concentration, oral 75 mg L-lysine-d-amphetamine, 0.5 h, mean
MEASURED QUANTITY: concentration at 0.5 h
Hey, just the number and the unit after it is fine.

Recorded result, CC(Cc1ccccc1)NC(=O)C(N)CCCCN (stereo not shown) , concentration at 0.5 h: 20.5 ng/mL

----------
Experiment: Clinical pharmacokinetics, 25 and 75 mg, compared to Adderall XR and Dexedrine Spansule
Conditions: human, in vivo, po, 75 mg, L-lysine-d-amphetamine intact conjugate concentration, oral 75 mg L-lysine-d-amphetamine, 72 h, mean
MEASURED QUANTITY: concentration at 72 h (ng/mL)
// units = ng/mL; emit number, no label

Form: compound = CC(Cc1ccccc1)NC(=O)C(N)CCCCN [L-lysine-d-amphetamine] ; concentration at 72 h = 0

----------
Assay: Clinical pharmacokinetics, 25 and 75 mg, compared to Adderall XR and Dexedrine Spansule
Conditions: human, in vivo, po, 25 mg, L-lysine-d-amphetamine intact conjugate concentration, oral 25 mg L-lysine-d-amphetamine, 10 h, individual subjects
MEASURED QUANTITY: concentration at 10 h (ng/mL)
# number only, unit ng/mL dropped from output

The molecule CC(Cc1ccccc1)NC(=O)C(N)CCCCN (stereo not shown) showed concentration at 10 h equal to 0

----------
Test: Pharmacokinetics in male beagle dogs after oral or 30-min intravenous administration, 1 mg/kg (LC/MS/MS)
Format: in vivo
Conditions: male, beagle, dog, plasma, iv, 1 mg/kg, 30 min iv, 1 mg/kg d-amphetamine base, individual dogs, read-out: AUCinf of L-lysine-d-amphetamine
Experimental: This was a non-randomized, two-treatment crossover study. All animals were maintained on their normal diet and were fasted overnight prior to each dose administration. L-lysine-d-amphetamine dose was based on the body weight measured on the morning of each dosing day. […] Microsoft Excel (Version 6, Microsoft Corp., Redmond, Wash.) was used for calculation of mean plasma concentration and graphing of the plasma concentration-time data. […] Half-life was calculated as ln 2/λz. […]
MEASURED QUANTITY: AUC(0-inf)

Recorded AUC(0-inf) (molecule CC(Cc1ccccc1)NC(=O)C(N)CCCCN (stereo not shown) ): 900 ng·h/mL

----------
Assay: Pharmacokinetics in male beagle dogs after oral or 30-min intravenous administration, 1 mg/kg (LC/MS/MS)
Assay type: in vivo
Conditions: male, beagle, dog, plasma, po, 1 mg/kg, oral, 1 mg/kg d-amphetamine base, individual dogs, read-out: Cmax of L-lysine-d-amphetamine
MEASURED QUANTITY: Cmax (ng/mL)
Only the number, expressed in ng/mL, is required.

Memo: CC(Cc1ccccc1)NC(=O)C(N)CCCCN (stereo not shown) , reported Cmax: 407

----------
Test: Clinical pharmacokinetics, 25 and 75 mg, compared to Adderall XR and Dexedrine Spansule
Conditions: human, in vivo, po, 25 mg, L-lysine-d-amphetamine intact conjugate concentration, oral 25 mg L-lysine-d-amphetamine, 8 h, mean
MEASURED QUANTITY: concentration at 8 h (ng/mL)
API: value field is a number in ng/mL; no unit string.

// concentration at 8 h value for CC(Cc1ccccc1)NC(=O)C(N)CCCCN [L-lysine-d-amphetamine] : 0

meta.source: patent US20090181898A1
